Source listed as patent US20240309015A1.

- Test system: IL-6
- method summary: Mouse IL6 Quantification Assay (LPS-stimulated RAW 264.7)
- Type: cell-based
- Design: dose or concentration left out as unconfirmed
- condition notes: RAW264.7, ELISA, read-out: IL-6: % inh.
readout: inhibition

>>> assay_value("Cc1c(-c2ccn(C(C)C)n2)sc2nc(-c3nccn3C)nc(NCC3COCCN3C)c12 (racemic)")
"76 to 100%"
>>> assay_value("COCCOc1nc(-c2nccn2C)nc2sc(-c3ccn(C(C)C)n3)c(C)c12")
"0%"
>>> assay_value("COC1CCCN(c2nc(-c3nccn3C)nc3sc(-c4ccn(C(C)C)n4)c(C)c23)C1 (racemic)")
"76 to 100%"
>>> assay_value("COc1cc(Cn2c(-c3nccn3C)nc3sc(-c4ccn(C(C)C)n4)c(C)c3c2=O)ncn1")
"1 to 25%"
>>> assay_value("COc1cccc(Nc2nc(-c3nccn3C)nc3sc(-c4ccn(C(C)C)n4)c(C)c23)n1")
"26 to 45%"
>>> assay_value("Cc1c(-c2ccn(C(C)C)n2)sc2nc(-c3nccn3C)nc(NCCN3CCOCC3)c12")
"76 to 100%"
>>> assay_value("Cc1c(-c2ccn(C(C)C)n2)sc2nc(-c3nccn3C)nc(NCC3CCCO3)c12 (racemic)")
"76 to 100%"
>>> assay_value("COc1cc(Nc2nc(-c3nccn3C)nc3sc(-c4ccn(C(C)C)n4)c(C)c23)ncn1")
"76 to 100%"
>>> assay_value("COCCOCCNc1nc(-c2nccn2C)nc2sc(-c3ccn(C(C)C)n3)c(C)c12")
"46 to 75%"
>>> assay_value("COCC1(OC)CCN(c2nc(-c3nccn3C)nc3sc(-c4ccn(C(C)C)n4)c(C)c23)C1 (racemic)")
"76 to 100%"
>>> assay_value("COCCO[C@H]1CC[C@@H](Nc2nc(-c3nccn3C)nc3sc(-c4ccn(C(C)C)n4)c(C)c23)C1 (racemic)")
"76 to 100%"
>>> assay_value("COc1cccc(Nc2nc(-c3nccn3C)nc3sc(-c4ccn(C(C)C)n4)c(C)c23)c1")
"76 to 100%"
>>> assay_value("COCCCn1c(-c2nccn2C)nc2sc(-c3ccn(C(C)C)n3)c(-c3ccccc3)c2c1=O")
"46 to 75%"
>>> assay_value("COCCn1c(-c2nccn2C)nc2sc(-c3ccn(C(C)C)n3)c(C)c2c1=O")
"76 to 100%"
>>> assay_value("COCCCn1c(-c2nccn2C)nc2sc(-c3ccn(C(C)C)n3)c(C)c2c1=O")
"46 to 75%"
>>> assay_value("COCCn1ccc(-c2sc3nc(-c4nccn4C)nc(NC[C@H]4CC[C@H]4COC)c3c2C)n1 (racemic)")
"76 to 100%"
>>> assay_value("CO[C@H]1C[C@H](CNc2nc(-c3nccn3C)nc3sc(-c4ccn(C(C)C)n4)c(C)c23)C1")
"46 to 75%"
>>> assay_value("COc1cccc(-c2sc3nc(-c4nccn4C)nc(N[C@H]4C[C@H](OC)C4)c3c2C)c1F")
"46 to 75%"
>>> assay_value("COCC1CN(c2nc(-c3nccn3C)nc3sc(-c4ccn(C(C)C)n4)c(C)c23)CCO1 (racemic)")
"46 to 75%"
>>> assay_value("COc1cccc(-c2sc3nc(-c4nccn4C)nc(N[C@@H]4CC[C@@H](OC)C4)c3c2C)c1F (racemic)")
"76 to 100%"
>>> assay_value("COCCCCn1c(-c2nccn2C)nc2sc(-c3ccn(C(C)C)n3)c(C)c2c1=O")
"46 to 75%"
>>> assay_value("COCCn1ccc(-c2sc3nc(-c4nccn4C)nc(N[C@@H]4CC[C@H](OC)C4)c3c2C)n1 (racemic)")
"26 to 45%"
>>> assay_value("Cc1c(-c2ccn(C(C)C)n2)sc2nc(-c3nccn3C)nc(NCC3CN(C)CCO3)c12 (racemic)")
"76 to 100%"
>>> assay_value("COCCCCOc1nc(-c2nccn2C)nc2sc(-c3ccn(C(C)C)n3)c(C)c12")
"76 to 100%"
>>> assay_value("COCCCOc1nc(-c2nccn2C)nc2sc(-c3ccn(C(C)C)n3)c(C)c12")
"76 to 100%"
>>> assay_value("COCCCOc1nc(-c2nccn2C)nc2sc(-c3ccn(C(C)C)n3)c(-c3ccccc3)c12")
"76 to 100%"
>>> assay_value("COc1cccc(-c2sc3nc(-c4nccn4C)nc(N[C@H]4C[C@H](OC)C4)c3c2-c2ccccc2)c1F")
"76 to 100%"
>>> assay_value("CO[C@H]1CNC[C@@H](Nc2nc(-c3nccn3C)nc3sc(-c4ccn(C(C)C)n4)cc23)C1")
"76 to 100%"
>>> assay_value("COc1cccc(-c2sc3nc(-c4nccn4C)nc(N[C@@H]4CC[C@@H](OC)C4)c3c2-c2ccccc2)c1F (racemic)")
"76 to 100%"
>>> assay_value("Cc1c(-c2ccn(C(C)C)n2)sc2nc(-c3nccn3C)nc(NCCN3CCS(=O)(=O)CC3)c12")
"46 to 75%"
